system: Escherichia coli TOP10; experiment: shrunken log2 fold change of peptide-encoding DNA abundance (4.5 h post-induction vs induction); higher = less antimicrobial activity (less host growth inhibition); conditions: time post-induction: 4.5 h; library: site-saturation at positions 5, 18, 19, 20;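 note: peptides expressed intracellularly from a pBAD plasmid library in pooled LB shake-flask culture, induced with 0.3% L-arabinose, DNA abundance read by NGS, three biological replicates, DESeq2 with apeglm shrinkage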
result-type: shrunken log2 fold change
Give bare numbers.

Take a look at these entries with their results.
{"columns": ["input-sequence", "result-type", "test-result"],
 "data": [
  ["RRIRLRPPRLPRPRPRPNPRPRP", "shrunken log2 fold change", 0.304],
  ["RRIRRRPPRLPRPRPRPLYFPRP", "shrunken log2 fold change", -0.115],
  ["RRIRGRPPRLPRPRPRPRMNPRP", "shrunken log2 fold change", 0.572],
  ["RRIRVRPPRLPRPRPRPNRWPRP", "shrunken log2 fold change", -0.0283],
  ["RRIRSRPPRLPRPRPRPAWAPRP", "shrunken log2 fold change", 0.333],
  ["RRIRSRPPRLPRPRPRPAKHPRP", "shrunken log2 fold change", -0.0685]
]}

Please give shrunken log2 fold change for each item listed below.
1. RRIRPRPPRLPRPRPRPDFDPRP
2. RRIRCRPPRLPRPRPRPWCKPRP

Result:
1. -0.03
2. 0.145
